system: Staphylococcus aureus; assay: Antibacterial activity against TMP-resistant Staphylococcus aureus BHKS 227 incubated for 24 hrs by CLSI based broth microdilution assay; type: functional
reported metric: MIC (µg/mL)
The response must be a number in µg/mL with no trailing unit.

| test smiles | reported |
| --- | --- |
| CC(C)c1cc(OCC2CC2)c(-c2cc(Cl)cc(Cl)c2)cc1Oc1cnc(N)nc1N | 2 |
| COc1cc(OC)cc(-c2cc(Oc3cnc(N)nc3N)c(C(C)C)cc2OC)c1 | 8 |
| CC(C)c1ccc(-c2cc(Oc3cnc(N)nc3N)c(C(C)C)cc2OCC2CC2)cc1 | 4 |
| COc1ccc(Oc2cnc(N)nc2N)cc1-c1ccc(C(F)(F)F)cc1 | 4 |

Name the value of MIC reported for CC(C)c1cc(OCC2CC2)c(-c2ccc(OC(F)(F)F)cc2)cc1Oc1cnc(N)nc1N when tested on Staphylococcus aureus.
4

Name the value of MIC reported for CC(C)CCOc1cc(C(C)C)c(Oc2cnc(N)nc2N)cc1I when tested on Staphylococcus aureus.
2

Name the value of MIC reported for COc1cc(C(C)C)c(Oc2cnc(N)nc2N)cc1I when tested on Staphylococcus aureus.
0.5

Name the value of MIC reported for COc1cc(C(C)C)c(Oc2cnc(N)nc2N)cc1-c1cccc(Cl)c1 when tested on Staphylococcus aureus.
1

Name the value of MIC reported for COc1ccc(-c2cc(Oc3cnc(N)nc3N)c(C(C)C)cc2OC)cc1 when tested on Staphylococcus aureus.
1

Name the value of MIC reported for CC(C)c1cc(O)c(I)cc1Oc1cnc(N)nc1N when tested on Staphylococcus aureus.
0.5

====

assay: Oral bioavailability in Sprague-Dawley rat at 15 mg/kg measured for 24 hrs by LC/MS analysis; type: ADME, organism-based; conditions: in vivo
reported metric: bioavailability (%)
The response must be a number in % with no trailing unit.

Determine its reported bioavailability: CC(C)c1cc(OCC2CC2)c(I)cc1Oc1cnc(N)nc1N
40.7

====

experiment: Cytotoxicity against HEK293 cells assessed as inhibition rate of cell growth at 100 uM incubated for 24 hrs by CCK8 assay relative to control; assay type: toxicity, cell-based; details: human
reported metric: inhibition at 24 h, 100 µM (%)
The response must be a number in % with no trailing unit.

Solved cases below.
| molecule | reported metric | reported |
| --- | --- | --- |
| COc1cc(C(C)C)c(Oc2cnc(N)nc2N)cc1-c1cc(C)cc(C)c1 | inhibition at 24 h, 100 µM | 29.7 |
| CCc1cc(Oc2cnc(N)nc2N)c(C(C)C)cc1OC | inhibition at 24 h, 100 µM | 38.8 |
| COc1cc(C(C)C)c(Oc2cnc(N)nc2N)cc1-c1ccc(O)cc1 | inhibition at 24 h, 100 µM | 22.9 |
| COc1cc(C(C)C)c(Oc2cnc(N)nc2N)cc1CC(C)C | inhibition at 24 h, 100 µM | 57.8 |
| COc1cc(C(C)C)c(Oc2cnc(N)nc2N)cc1-c1ccc(C(F)(F)F)cc1 | inhibition at 24 h, 100 µM | 27.4 |
| COc1cc(C(C)C)c(Oc2cnc(N)nc2N)cc1-c1ccncc1 | inhibition at 24 h, 100 µM | 2.09 |
| COc1cc(C(C)C)c(Oc2cnc(N)nc2N)cc1I | inhibition at 24 h, 100 µM | 26.1 |
| COc1cc(C(C)C)c(Oc2cnc(NC(C)=O)nc2NC(C)=O)cc1I | inhibition at 24 h, 100 µM | 26.7 |

Determine its reported inhibition at 24 h, 100 µM: CC(C)c1cc(OCC2CC2)c(-c2ccc(OC(F)(F)F)cc2)cc1Oc1cnc(N)nc1N
22.9

Determine its reported inhibition at 24 h, 100 µM: COc1cc(Cc2cnc(N)nc2N)cc(OC)c1OC
2.93

Determine its reported inhibition at 24 h, 100 µM: CC(C)c1cc(O)c(I)cc1Oc1cnc(N)nc1N
30.1

Determine its reported inhibition at 24 h, 100 µM: CC(C)c1cc(OCC2CC2)c(-c2cc(Cl)cc(Cl)c2)cc1Oc1cnc(N)nc1N
27.5
